The entries below pair molecules with pKi values for UniProt:P23975, as found in several publications.
pKi: −log10 of the molar value.
parameter_measured: pKi

INSERT INTO results (molecule, recorded_value) VALUES
  ('Clc1ccc(O[C@@H](C2CC2)[C@H]2CCNC2)c2ccccc12', '≥ 8.00'),
  ('Cc1ccc(Cl)c(O[C@H](C2CC2)[C@H]2CCNC2)c1F', '≥ 8.00'),
  ('COc1cc(Cl)ccc1Oc1cc(F)ccc1OC[C@H]1CCCNC1', 6.08),
  ('Cc1ccc(OC[C@H]2CCCNC2)c(Oc2ccccc2Cl)n1', 8.57),
  ('Cc1nnc(N(C)C)c2nn(-c3cccc(OCC4CCN(CCc5ccccc5)CC4)c3)c(C)c12', '6.30 to 7.00'),
  ('CSc1ccccc1O[C@@H](C1CC1)[C@H]1CCNC1', '≥ 8.00'),
  ('CCOc1ccc(-n2nc3c(N(C)Cc4cnc[nH]4)nnc(C)c3c2C)c(F)c1', '< 6.00'),
  ('CC(C)C[C@H](Oc1cc(Cl)cc(Cl)c1)[C@@H]1CCNC1', '≥ 8.00'),
  ('CNCC[C@@H](Oc1cccc(-n2nc3c(N(C)C)nnc(C)c3c2C)c1)c1cccnc1', '6.00 to 6.30');

###

The entries below pair molecules with Ki values for Sodium-dependent noradrenaline transporter (Homo sapiens), as found in several publications.
parameter_measured: Ki

INSERT INTO measurements (molecule, tested_on, parameter_measured, recorded_value) VALUES
  ('CC[C@H](Oc1cccc(Cl)c1C(F)(F)F)[C@@H]1CCNC1', 'Sodium-dependent noradrenaline transporter (Homo sapiens)', 'Ki', '≤ 100 nM'),
  ('Fc1c(Cl)cccc1O[C@@H](C1CC1)[C@H]1CCNC1', 'Sodium-dependent noradrenaline transporter (Homo sapiens)', 'Ki', '≤ 10 nM'),
  ('CCOc1ccc(-n2nc3c(N(C)Cc4cccnc4)nnc(C)c3c2C)c(F)c1', 'Sodium-dependent noradrenaline transporter (Homo sapiens)', 'Ki', '500 to 1000 nM'),
  ('CNCCC(Oc1cccc(-n2nc3c(N(C)C)nnc(C)c3c2C)c1)c1ccncc1 (stereo not shown)', 'Sodium-dependent noradrenaline transporter (Homo sapiens)', 'Ki', '< 100 nM'),
  ('CC(=O)c1c(F)cccc1O[C@@H](CC(C)C)[C@H]1CCNC1', 'Sodium-dependent noradrenaline transporter (Homo sapiens)', 'Ki', '≤ 10 nM'),
  ('Fc1ccc(-c2ccccc2-c2ccccc2)c(CO[C@H]2CCNC2)c1', 'Sodium-dependent noradrenaline transporter (Homo sapiens)', 'Ki', '962 nM'),
  ('Cc1nnc(N(C)C)c2nn(-c3cccc(O[C@H](c4ccccc4)[C@@H]4CNCCO4)c3)c(C)c12 (racemic)', 'Sodium-dependent noradrenaline transporter (Homo sapiens)', 'Ki', '100 to 500 nM'),
  ('CCC[C@@H](Oc1ccc(Cl)c(Cl)c1)[C@H]1CCNC1', 'Sodium-dependent noradrenaline transporter (Homo sapiens)', 'Ki', '≤ 10 nM'),
  ('CCOc1ccc(-n2nc3c(N4CC[C@H](NC(=O)Cc5ccccn5)C4)nnc(C)c3c2C)c(F)c1', 'Sodium-dependent noradrenaline transporter (Homo sapiens)', 'Ki', '≥ 1000 nM'),
  ('CC[C@H](Oc1c(F)cc(F)cc1F)[C@H]1CCNC1', 'Sodium-dependent noradrenaline transporter (Homo sapiens)', 'Ki', '≤ 10 nM'),
  ('COc1ccc(F)c(O[C@@H](C2CC2)[C@H]2CCNC2)c1Cl', 'Sodium-dependent noradrenaline transporter (Homo sapiens)', 'Ki', '≤ 10 nM'),
  ('CSc1cccc(-c2ccccc2CO[C@H]2CCNC2)c1', 'Sodium-dependent noradrenaline transporter (Homo sapiens)', 'Ki', '108 nM'),
  ('Cc1nnc(N(C)C)c2nn(-c3cccc(OCCC(N)c4ccccc4)c3)c(C)c12 (stereo not shown)', 'Sodium-dependent noradrenaline transporter (Homo sapiens)', 'Ki', '100 to 500 nM'),
  ('CCC[C@H](Oc1ccc(Cl)cc1)[C@H]1CCNC1', 'Sodium-dependent noradrenaline transporter (Homo sapiens)', 'Ki', '≤ 10 nM'),
  ('CCOc1ccc(-n2nc3c(NCCC(O)c4ccccc4)nnc(C)c3c2C)c(F)c1 (stereo not shown)', 'Sodium-dependent noradrenaline transporter (Homo sapiens)', 'Ki', '100 to 500 nM'),
  ('Fc1cccc(-c2nc(NC3CCNCC3)nc3ccccc23)c1F', 'Sodium-dependent noradrenaline transporter (Homo sapiens)', 'Ki', '221 nM'),
  ('CN1CCC(c2nc(-c3c(F)cccc3F)c3ccccc3n2)CC1', 'Sodium-dependent noradrenaline transporter (Homo sapiens)', 'Ki', '37.9 nM'),
  ('CCOc1ccc(-n2nc3c(N(C)Cc4ccc(C)cn4)nnc(C)c3c2C)c(F)c1', 'Sodium-dependent noradrenaline transporter (Homo sapiens)', 'Ki', '> 1000 nM'),
  ('CCOc1ncccc1O[C@@H](CC)[C@H]1CCCNC1', 'Sodium-dependent noradrenaline transporter (Homo sapiens)', 'Ki', '13 nM'),
  ('CC(C)C[C@H](Oc1ccc(Cl)cc1F)[C@H]1CCNC1', 'Sodium-dependent noradrenaline transporter (Homo sapiens)', 'Ki', '≤ 10 nM'),
  ('Cc1cc(C)cc(-c2ccccc2CO[C@H]2CCNC2)c1', 'Sodium-dependent noradrenaline transporter (Homo sapiens)', 'Ki', '295 nM'),
  ('COc1cccc(F)c1O[C@@H](c1ccccn1)[C@H]1CCCNC1', 'Sodium-dependent noradrenaline transporter (Homo sapiens)', 'Ki', '4 nM'),
  ('CC[C@H](Oc1cccnc1Oc1ccc(F)cc1)[C@H]1CCCNC1', 'Sodium-dependent noradrenaline transporter (Homo sapiens)', 'Ki', '5 nM'),
  ('Fc1ccc(O[C@@H](C2CC2)[C@H]2CCNC2)c(F)c1F', 'Sodium-dependent noradrenaline transporter (Homo sapiens)', 'Ki', '≤ 10 nM'),
  ('COc1cccc(Oc2nc(C)ccc2OC[C@H]2CCCNC2)c1OC', 'Sodium-dependent noradrenaline transporter (Homo sapiens)', 'Ki', '3200 nM'),
  ('FC(F)(F)Oc1ccccc1O[C@@H](c1ccccn1)[C@H]1CCCNC1', 'Sodium-dependent noradrenaline transporter (Homo sapiens)', 'Ki', '3 nM'),
  ('CC(C)CC(Oc1ccc(F)cc1)C1CCNC1 (stereo not shown)', 'Sodium-dependent noradrenaline transporter (Homo sapiens)', 'Ki', '≤ 10 nM'),
  ('CCS(=O)(=O)c1ccc(-c2ccccc2CO[C@H]2CCNC2)cc1', 'Sodium-dependent noradrenaline transporter (Homo sapiens)', 'Ki', '≥ 10000 nM'),
  ('CC(C)[C@H](Oc1c(F)ccc(F)c1Cl)[C@H]1CCNC1', 'Sodium-dependent noradrenaline transporter (Homo sapiens)', 'Ki', '≤ 10 nM'),
  ('N[C@@H]1CCN(c2nc(-c3cccc(F)c3F)c3ccccc3n2)C1', 'Sodium-dependent noradrenaline transporter (Homo sapiens)', 'Ki', '11.4 nM'),
  ('CCCC[C@@H](Oc1ccc(Cl)cc1Cl)[C@H]1CCNC1', 'Sodium-dependent noradrenaline transporter (Homo sapiens)', 'Ki', '≤ 10 nM'),
  ('CCOc1ccc(-n2nc3c(N(C)Cc4ccncn4)nnc(C)c3c2C)c(F)c1', 'Sodium-dependent noradrenaline transporter (Homo sapiens)', 'Ki', '> 1000 nM'),
  ('Cc1cc(C)cc(-c2ccc(F)cc2CO[C@H]2CCNC2)c1', 'Sodium-dependent noradrenaline transporter (Homo sapiens)', 'Ki', '377 nM'),
  ('Cc1nnc(N)c2nn(-c3cccc(OC(CCN)c4ccccc4F)c3)c(C)c12 (stereo not shown)', 'Sodium-dependent noradrenaline transporter (Homo sapiens)', 'Ki', '500 to 1000 nM'),
  ('C#CC(Oc1ccc(Cl)cc1C)[C@H]1CCNC1 (stereo partly shown)', 'Sodium-dependent noradrenaline transporter (Homo sapiens)', 'Ki', '≤ 100 nM'),
  ('Fc1ccccc1-c1ccccc1CO[C@H]1CCNC1', 'Sodium-dependent noradrenaline transporter (Homo sapiens)', 'Ki', '26.5 nM'),
  ('CNCC[C@@H](Oc1cccc(-n2nc3c(N(C)C)nnc(C)c3c2C)c1)c1ccccc1', 'Sodium-dependent noradrenaline transporter (Homo sapiens)', 'Ki', '100 to 500 nM');

###

The entries below pair compounds with Ki values for UniProt P23975, as found in several publications.
parameter_measured: Ki (µM)

INSERT INTO assay_data (compound, parameter_measured, unit_text, bound_operator, recorded_value) VALUES
  ('Fc1ccc(-c2nc(NC3CCNCC3)nc3ccccc23)c(F)c1', 'Ki', 'µM', '=', 0.0581),
  ('CNCCC(Oc1cccc(-n2nc3c(N(C)C)nnc(C)c3c2C)c1)c1cccc(OC)c1 (stereo not drawn)', 'Ki', 'µM', '<', 0.1),
  ('CNC1CCN(c2nc(-c3cccc(F)c3F)c3ccccc3n2)CC1', 'Ki', 'µM', '=', 0.207),
  ('CC(C)C[C@H](Oc1ccc(Cl)cc1)[C@H]1CCNC1', 'Ki', 'µM', '≤', 0.01),
  ('CNCC[C@H](Oc1cccc(-c2ccnc(NC)n2)c1)c1ccccc1', 'Ki', 'µM', '<', 0.1),
  ('COc1ccc(-c2ccccc2CO[C@H]2CCNC2)cc1OC', 'Ki', 'µM', '=', 0.635),
  ('Fc1ccc2c(-c3ccccc3F)nc(N3CCNCC3)nc2c1', 'Ki', 'µM', '=', 0.0027),
  ('Cc1cc(Cl)cc(Cl)c1O[C@@H](C1CC1)[C@H]1CCNC1', 'Ki', 'µM', '≤', 0.01),
  ('Fc1ccc(-c2nc(NCC3CCNC3)nc3ccccc23)c(F)c1 (stereo not drawn)', 'Ki', 'µM', '=', 0.425);
